SYSTEM NAME: T1, PSMA Fab
T1 construct: also called Anti-PSMA Fab; 006 PSMA Fab
ASSAY PROCEDURE: phage ELISA; biotinylated PSMA Fab on neutravidin plate, pre-incubated with PSMA antigen as competitor, anti-M13 HRP detection
METRIC: Phage binding ELISA signal, Anti-PSMA Fab in presence of PSMA

Solved cases (2 shown):
SPIMCTPDWMCLGF [Phage-3439] :: 0.0708
PGPSCVPSWMCVGF [Phage-3437] :: 0.074

Input YGLRCEPAWMCQGF [Phage-3443] . Output Phage binding ELISA signal, Anti-PSMA Fab in presence of PSMA: 0.0879
